TARGET_ENTITY: Bifunctional protein GlmU (Mycobacterium tuberculosis (strain ATCC 25618 / H37Rv))
EXPERIMENT_SUMMARY: inhibition of mycobacterial GlmU enzyme – biochemical, glucosamine-1-phosphate acetyltransferase (AID 1376);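 also: 0% = complete reaction with vehicle and 100% = reaction without substrate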
EXPERIMENTAL_CONDITIONS: M. tuberculosis GlmU acetyltransferase enzyme assay;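 tested at 30 µM in the primary screen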
In all, about 220,000 compounds went through this assay and about 530 (0.24%) were called active. Rule as the data show it: active = inhibition above about 13%; inconclusive = no clear call, values can overlap the other calls; inactive = below that. The entries come from a sample that favours actives as a whole. Entries with a potency or affinity are not part of this list.
A correct response names exactly one class from active, inactive

INSERT INTO assay_data (molecule, answer_label) VALUES
  ('Nc1ccccc1NC1=CC(=O)CC(c2ccccc2)C1 (stereo not given)', 'inactive'),
  ('CC(C)C/C=C1\CCc2c([nH]c3ccccc23)C1=O', 'inactive'),
  ('COc1cc(C(c2c(O)c3ccccc3oc2=O)c2c(C)n(C)n(-c3ccccc3)c2=O)ccc1O (stereo not given)', 'inactive');

In this assay, the call recorded for O=C1c2ccccc2S(=O)(=O)c2cc(C(=O)N3CCN(C(=O)c4ccccc4)CC3)ccc21 was what? inactive

Outcome? CCOc1ccc(NC(=O)Nc2cc(C(C)C)ccc2C)cc1 active

Assay result, entry CC(C1CC2CCC1C2)n1c(-c2ccco2)n[nH]c1=S (stereo not given) — outcome? inactive

Give the logged outcome of this assay for the following molecule: CCc1ccc2[nH]c(=O)c(CN(CCN(CC)CC)C(=O)NC3CCCCC3)cc2c1 inactive

State the result this test recorded for O=C(/C=C/c1ccco1)Nc1cccnc1Cl . inactive

So what was the verdict on Cc1ccc(CN2C(=O)N/C(=C\c3cccn3-c3cccc(C(=O)O)c3)C2=O)cc1 in this test? inactive

###

TARGET_ENTITY: Bifunctional protein GlmU (Mycobacterium tuberculosis (strain ATCC 25618 / H37Rv))
EXPERIMENT_SUMMARY: inhibition of mycobacterial GlmU enzyme – biochemical, glucosamine-1-phosphate acetyltransferase (AID 1376);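 also: 0% = complete reaction with vehicle and 100% = reaction without substrate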
EXPERIMENTAL_CONDITIONS: M. tuberculosis GlmU acetyltransferase enzyme assay;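 tested at 30 µM in the primary screen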
Hit rate of the full screen: of about 220,000 compounds, about 530 (0.24%) were called active. Rule as the data show it: active = inhibition above about 13%; inconclusive = no clear call, values can overlap the other calls; inactive = below that. For the sample, actives were picked, then their nearest neighbours and some compounds at random. Measured potencies and affinities stand elsewhere.
Outcomes you can answer with include only these: active, inactive

Please review the entries below; each comes with its answer.
INSERT INTO measurements (compound, answer_label) VALUES
  ('Cc1ccc(N=CC2=C(O)CC(C)(C)CC2=O)nc1', 'inactive'),
  ('CC1(C)CC(=O)C(/C=N/c2ccccn2)=C(O)C1', 'inactive'),
  ('CCN(CC)CCOC(c1ccccc1)c1ccc(C)cc1 (stereo unspecified)', 'active'),
  ('COc1cc(/C=C2\CC/C(=C\c3cc(OC)c(OC)c(OC)c3)C2=O)cc(OC)c1OC', 'inactive'),
  ('CN1CCN(CC(=O)Nc2sc3c(c2C#N)CCC(C(C)(C)C)C3)CC1 (stereo unspecified)', 'inactive');

I would be grateful if you could indicate the recorded call for CC[N+](CC)(CC)CCCOC(=O)C(O)(c1ccccc1)C1CCCCC1 (stereo unspecified) . inactive

Please let me know the test result on file for O=C(Nc1c(F)c(F)c(F)c(F)c1F)C1CCCCC1 . inactive

What did the test return for O=C(NCCO)C(c1ccccc1)c1ccccc1 ? inactive

// param item: Cc1nn(CCCC(=O)Nc2sc3c(c2C#N)CCC3)c(C)c1[N+](=O)[O-] ; yields the recorded call inactive

What call does the record list for Cc1ccc(C(OCCN(C)C)c2cccc(C(F)(F)F)c2)cc1 (stereo unspecified) ? inactive

Per the records of this test, what outcome belongs to CCN(CC)CCC(C)OC(c1ccccc1)c1ccccc1 (stereo unspecified) ? inactive

###

TARGET_ENTITY: Bifunctional protein GlmU (Mycobacterium tuberculosis (strain ATCC 25618 / H37Rv)) (UniProt P9WMN3)
Sequence (P9WMN3 whole entry, looked up): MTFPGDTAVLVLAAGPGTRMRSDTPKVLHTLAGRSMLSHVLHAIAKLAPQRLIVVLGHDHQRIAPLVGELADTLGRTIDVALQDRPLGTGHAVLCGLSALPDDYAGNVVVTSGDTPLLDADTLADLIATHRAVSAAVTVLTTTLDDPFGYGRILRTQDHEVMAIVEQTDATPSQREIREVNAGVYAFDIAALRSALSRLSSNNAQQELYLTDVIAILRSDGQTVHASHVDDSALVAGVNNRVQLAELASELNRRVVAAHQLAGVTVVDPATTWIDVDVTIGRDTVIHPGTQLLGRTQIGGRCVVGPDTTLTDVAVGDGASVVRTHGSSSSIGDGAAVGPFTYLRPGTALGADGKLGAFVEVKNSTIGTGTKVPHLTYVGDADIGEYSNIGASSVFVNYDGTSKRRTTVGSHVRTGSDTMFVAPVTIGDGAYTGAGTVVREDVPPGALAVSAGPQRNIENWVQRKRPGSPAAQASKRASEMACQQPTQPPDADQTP
EXPERIMENT_SUMMARY: inhibition of mycobacterial GlmU enzyme – biochemical, glucosamine-1-phosphate acetyltransferase (AID 1376);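 also: 0% = complete reaction with vehicle and 100% = reaction without substrate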
EXPERIMENTAL_CONDITIONS: M. tuberculosis GlmU acetyltransferase enzyme assay; active compounds read high;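 tested at 30 µM in the primary screen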
About 530 (0.24%) of roughly 220,000 compounds were called active. Shown is part of a subset that was picked to be rich in actives. Entries with a potency or affinity are not part of this list.
inhibition of 5% or higher: Satisfied. Under 5%: Not satisfied.

Test whether the molecule Cc1nc2c(c(=O)[nH]1)C(c1ccccc1Cl)c1c(c3ccccc3oc1=O)O2 (stereo unspecified) records inhibition of 5% or higher. Not satisfied

Decide: inhibition of CCOc1ccccc1/C=N/NC(=O)CNC(=O)c1ccc(S(=O)(=O)N2CCOCC2)cc1 >= 5%? Not satisfied

Is inhibition for N#CC12CNCC1CN=N2 (stereo unspecified) at or above 5%? Satisfied

###

TARGET_ENTITY: Bifunctional protein GlmU (Mycobacterium tuberculosis (strain ATCC 25618 / H37Rv)) (UniProt P9WMN3)
EXPERIMENT_SUMMARY: inhibition of mycobacterial GlmU enzyme – biochemical, glucosamine-1-phosphate acetyltransferase (AID 1376);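 also: 0% = complete reaction with vehicle and 100% = reaction without substrate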
EXPERIMENTAL_CONDITIONS: M. tuberculosis GlmU acetyltransferase enzyme assay;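 tested at 30 µM in the primary screen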
Among all 220,000 compounds or so, about 530 (0.24%) were called active. No stated cut-off is given here; in the data, active means inhibition above about 13%; inconclusive means no clear call, values can overlap the other calls; inactive means below that. Shown is part of a subset that was picked to be rich in actives. Potency and affinity values are given separately.
Pick one and only one: Yes = active, No = inactive

Previously resolved entries follow.
INSERT INTO results (compound, answer_label) VALUES
  ('COCC(C)n1c(C)cc(C(=O)CSc2nnc(Nc3ccccc3F)s2)c1C (configuration not stated)', 'No'),
  ('O=S(=O)(c1ccc(-c2nc3ccccc3s2)cc1)N1CCCC1', 'No'),
  ('Cc1cccc(NC(=O)CN2C(=O)S/C(=C\c3ccc(O)c([N+](=O)[O-])c3)C2=O)c1', 'No'),
  ('CC12CC(NC(=O)N1c1ccc(C(=O)N3CCN(c4ccc(F)cc4)CC3)cc1)c1ccccc1O2 (configuration not stated)', 'No'),
  ('Cc1cccc(-n2c(-c3ccco3)nc3ccccc3c2=O)n1', 'No'),
  ('S=C=Nc1ccccn1', 'No'),
  ('O=C(N/N=C1/CCS(=O)(=O)c2ccc(F)cc21)c1ccccn1', 'No'),
  ('O=C(OCC(=O)N1CCN(C(=O)c2ccco2)CC1)c1cn(-c2ccccc2)nc1-c1ccccc1', 'No'),
  ('COc1cc(NC(=O)c2cccs2)c(C(=O)OCC(=O)c2cc(C)n(-c3ccc(F)cc3)c2C)cc1OC', 'No'),
  ('NS(=O)(=O)c1cccc(NC(=O)CN2CCc3ccccc32)c1', 'No');

# fetch the recorded call for Cc1ccccc1C(=O)N1CCN(c2ccc(NC(=O)c3ccc4c(c3)OCO4)cc2)CC1 here No

Returns: the outcome recorded for COc1ccc(/C=C2\SC(=O)N(CC(=O)NNC(=O)c3ccccc3O)C2=O)cc1 in this assay. No

###

TARGET_ENTITY: Bifunctional protein GlmU (Mycobacterium tuberculosis (strain ATCC 25618 / H37Rv)) (UniProt P9WMN3)
EXPERIMENT_SUMMARY: inhibition of mycobacterial GlmU enzyme – biochemical, glucosamine-1-phosphate acetyltransferase (AID 1376);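 also: 0% = complete reaction with vehicle and 100% = reaction without substrate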
EXPERIMENTAL_CONDITIONS: M. tuberculosis GlmU acetyltransferase enzyme assay; active compounds read high;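 tested at 30 µM in the primary screen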
Out of some 220,000 compounds screened, about 530 (0.24%) were called active. Only a selection was taken, and actives are over-represented in it overall. Measured potencies and affinities stand elsewhere.
The following molecules are listed with their measured inhibition values.
The figure you give is taken to be in %; do not add the unit.

In the examples that follow, each entry is paired with its recorded inhibition.
INSERT INTO results (molecule, units_text, test_result) VALUES
  ('O=C(c1ccccc1F)N1CCCC(C(=O)N2CCN(c3ccccc3)CC2)C1 (centres undefined)', '%', 4.78),
  ('Cc1cc(C)c(NC(=O)COC(=O)c2cccc3c2C(=O)c2ccccc2C3=O)c(C)c1', '%', 3.23),
  ('O=C(O)c1ccccc1C(=O)Nc1cccc([N+](=O)[O-])c1', '%', 17.2),
  ('COC(=O)c1ccccc1NC(=O)Nc1cccc(C)n1', '%', 1.31),
  ('O=C(O)c1ccc(/C=C/c2nc3sc4c(c3c(=O)[nH]2)CCC4)cc1', '%', 2.03);

Name the recorded inhibition for CCN(CC)C(=O)c1ccc2c(c1)C1C(Cl)C(Sc3ccccc3[N+](=O)[O-])CC1C(C(=O)O)N2 (centres undefined) . -0.47

Using the record for CCOC(=O)CSc1nc2ccccc2c(=O)n1CC1CCCC1 , report its inhibition. -1.38

Look up inhibition: CC(C)(C)N1CC(C(=O)O)CC1=O (centres undefined) 6.47

###

TARGET_ENTITY: Bifunctional protein GlmU (Mycobacterium tuberculosis (strain ATCC 25618 / H37Rv))
EXPERIMENT_SUMMARY: inhibition of mycobacterial GlmU enzyme – biochemical, glucosamine-1-phosphate acetyltransferase (AID 1376);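 also: 0% = complete reaction with vehicle and 100% = reaction without substrate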
EXPERIMENTAL_CONDITIONS: M. tuberculosis GlmU acetyltransferase enzyme assay; active compounds read high;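 tested at 30 µM in the primary screen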
Among all 220,000 compounds or so, about 530 (0.24%) were called active. The sample as a whole holds a higher share of actives than the screen did. Potency and affinity values are given separately.
Recorded inhibition values for a group of compounds are listed next.
State the answer as a number, implicitly in %.

INSERT INTO assay_data (compound, units_text, test_result) VALUES
  ('Nc1ccc(C(=O)O)cc1[N+](=O)[O-]', '%', -10.2),
  ('O=C1CCN(S(=O)(=O)c2ccccc2)CCN1CCOCc1ccc(F)cc1', '%', -0.16),
  ('CN1C(=O)NC(=O)/C(=C/c2ccc([N+](=O)[O-])s2)C1=O', '%', -1.9);

What measured inhibition is associated with O=C(CNc1cccc(C(F)(F)F)c1)N/N=C/c1cccc(Br)c1 on Bifunctional protein GlmU (Mycobacterium tuberculosis (strain ATCC 25618 / H37Rv))? -0.17

Request - read-out inhibition | tested on Bifunctional protein GlmU (Mycobacterium tuberculosis (strain ATCC 25618 / H37Rv)) | compound Cc1ccc(NC(=O)CN2C(=O)N/C(=C/c3ccc(N4CCOCC4)cc3)C2=O)cc1 -5.18

Param readout = inhibition; param system = Bifunctional protein GlmU (Mycobacterium tuberculosis (strain ATCC 25618 / H37Rv)); param query = CC(=O)Nc1ccc2nc3ccccc3nc2c1 ; response: value 3.15

Item: CC(=O)N1N=C(c2cccs2)CC1c1cccs1 (stereo not given) Test system: Bifunctional protein GlmU (Mycobacterium tuberculosis (strain ATCC 25618 / H37Rv)) Read-out: inhibition Value: ? -7.39

# returns recorded inhibition (system: Bifunctional protein GlmU (Mycobacterium tuberculosis (strain ATCC 25618 / H37Rv))) for Cc1ccc(NC(=O)CN2C(=O)N/C(=C/c3cc(C)n(-c4ccc(C(=O)O)cc4)c3C)C2=O)cc1 8.1

Please state recorded inhibition (tested on Bifunctional protein GlmU (Mycobacterium tuberculosis (strain ATCC 25618 / H37Rv))) of O=[N+]([O-])c1c(Nc2ccccn2)cc(Cl)c2nonc12 -2.44

Item: Cc1cc(C=C2C(=O)c3ccccc3C2=O)c(C)n1-c1cccc(C(=O)O)c1 Test system: Bifunctional protein GlmU (Mycobacterium tuberculosis (strain ATCC 25618 / H37Rv)) Read-out: inhibition Value: ? 7.28

Give recorded inhibition with Bifunctional protein GlmU (Mycobacterium tuberculosis (strain ATCC 25618 / H37Rv)) for the following compound: CN(C)c1cc(Nc2ccc(O)cc2)c([N+](=O)[O-])c2nonc12 0.57

# get_value(readout= inhibition, system= Bifunctional protein GlmU (Mycobacterium tuberculosis (strain ATCC 25618 / H37Rv))) for CC(C)C1NC(=S)N(C2CCCCC2)C1=O (stereo not given) 1.15

Param readout= inhibition; system= Bifunctional protein GlmU (Mycobacterium tuberculosis (strain ATCC 25618 / H37Rv)); entry= CC(=O)NC1=NC(=O)/C(=C/c2cc(C)n(-c3ccc(NC(C)=O)cc3)c2C)S1 ; returns value. 3.45

inhibition of O=C(CNc1cccc(C(F)(F)F)c1)N/N=C/c1ccccc1C(=O)O on Bifunctional protein GlmU (Mycobacterium tuberculosis (strain ATCC 25618 / H37Rv))? 13.4

State its inhibition on Bifunctional protein GlmU (Mycobacterium tuberculosis (strain ATCC 25618 / H37Rv)): Nc1c(C(=O)O)ccc2c1C(=O)c1ccccc1C2=O 5.83

Lab note: need inhibition with Bifunctional protein GlmU (Mycobacterium tuberculosis (strain ATCC 25618 / H37Rv)) for entry Cc1cc(NC(=O)Cc2ccccc2)c2ccccc2n1 , please look it up. -0.11

Lab note: need inhibition for CN1CCN(C(=S)NC(=O)c2ccc(Br)cc2)CC1 on Bifunctional protein GlmU (Mycobacterium tuberculosis (strain ATCC 25618 / H37Rv)), anyone have it? -2.25

Identify the measured inhibition of CC1=CC(=O)C(C(C)C)=C/C1=N/OS(=O)(=O)c1ccccc1 for Bifunctional protein GlmU (Mycobacterium tuberculosis (strain ATCC 25618 / H37Rv)). 1.82

Notebook: pull reported inhibition for Bifunctional protein GlmU (Mycobacterium tuberculosis (strain ATCC 25618 / H37Rv)), entry COc1cc(/C=C2\SC(c3ccc(C)cc3)=NC2=O)cc(OC)c1O 5.86

Give inhibition (Bifunctional protein GlmU (Mycobacterium tuberculosis (strain ATCC 25618 / H37Rv))) of the following compound: Cc1ccc(-n2c(N)c(C(=O)N3CCOCC3)sc2=S)cc1 -2.93

Give inhibition (Bifunctional protein GlmU (Mycobacterium tuberculosis (strain ATCC 25618 / H37Rv))) of the following compound: Nc1c(C(=O)N2CCCCC2)sc(=S)n1-c1ccccc1 -0.25

Under Bifunctional protein GlmU (Mycobacterium tuberculosis (strain ATCC 25618 / H37Rv)): inhibition value of Nc1cc(C(=O)O)c(N)c2c1C(=O)c1ccccc1C2=O ? 12.9

Param readout= inhibition; system= Bifunctional protein GlmU (Mycobacterium tuberculosis (strain ATCC 25618 / H37Rv)); entry= CC(C)(C)C1CCC2(CC1)CC(=O)c1ccccc1O2 (stereo not given) ; returns value. 0.53

Find inhibition (Bifunctional protein GlmU (Mycobacterium tuberculosis (strain ATCC 25618 / H37Rv))) for the entry Cc1ccc(-n2cccc2/C=C2/NC(=O)N(CC(=O)Nc3cccc(C)c3)C2=O)cc1 10.8

Query for Bifunctional protein GlmU (Mycobacterium tuberculosis (strain ATCC 25618 / H37Rv)): what inhibition does the record show for Cc1nc2cc(NC(=O)NCc3ccc4c(c3)OCO4)ccc2o1 ? 0.01
